Target: T1, EsCas13d, nuclease-dead (Eubacterium siraeum, UniProt B0MS50, R295A;H300A;R849A;H854A)
T1 sequence: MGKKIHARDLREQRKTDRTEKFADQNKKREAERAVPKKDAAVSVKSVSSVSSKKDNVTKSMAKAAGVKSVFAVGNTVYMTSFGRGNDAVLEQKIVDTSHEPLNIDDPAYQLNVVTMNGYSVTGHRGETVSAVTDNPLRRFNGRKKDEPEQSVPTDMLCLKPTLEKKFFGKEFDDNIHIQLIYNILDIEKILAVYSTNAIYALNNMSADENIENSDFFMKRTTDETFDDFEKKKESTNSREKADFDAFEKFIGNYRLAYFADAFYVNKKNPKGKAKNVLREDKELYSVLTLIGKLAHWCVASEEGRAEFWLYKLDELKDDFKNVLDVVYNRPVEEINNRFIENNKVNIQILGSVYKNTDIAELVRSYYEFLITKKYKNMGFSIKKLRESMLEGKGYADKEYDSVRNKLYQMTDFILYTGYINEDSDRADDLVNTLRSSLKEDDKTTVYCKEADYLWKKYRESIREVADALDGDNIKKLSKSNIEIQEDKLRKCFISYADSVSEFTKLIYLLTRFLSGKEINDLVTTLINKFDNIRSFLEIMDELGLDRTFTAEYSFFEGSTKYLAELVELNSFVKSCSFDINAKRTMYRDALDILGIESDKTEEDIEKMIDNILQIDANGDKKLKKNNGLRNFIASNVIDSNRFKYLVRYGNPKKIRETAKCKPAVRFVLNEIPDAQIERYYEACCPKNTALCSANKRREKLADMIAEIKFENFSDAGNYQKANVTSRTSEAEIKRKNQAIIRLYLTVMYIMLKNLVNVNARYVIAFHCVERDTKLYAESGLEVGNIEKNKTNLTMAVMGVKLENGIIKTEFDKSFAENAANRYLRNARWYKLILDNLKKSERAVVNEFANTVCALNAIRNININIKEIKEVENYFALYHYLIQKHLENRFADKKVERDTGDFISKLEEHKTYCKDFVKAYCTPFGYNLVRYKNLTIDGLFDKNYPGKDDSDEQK
Test: crRNA (strand 1, pre-loaded); Mg2+; 40 mM Tris-HCl pH 7.5, 150 mM NaCl, 6 mM MgCl2, 1 mM DTT, 0.1% Tween-20, 0.2 mg/ml BSA; 25 C; 10 min per concentration, then washed
Settings: tags: His6-TwinStrep-SUMO cleaved; N-terminal SNAP kept (SNAP-Surface 488); label: 3' end held by stalled T7 RNA polymerase
measured_attribute: pKd
By convention, pKd is the negative base-10 log of a molar concentration.

Field: example entries. Status: answers known.
| binder | reported_value |
| --- | --- |
| target 1 MT 5'PFS UGU 3'PFS UCA (mixed) RNA 1: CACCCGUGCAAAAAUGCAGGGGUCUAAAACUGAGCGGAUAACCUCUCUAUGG RNA 2: GGGAAUGGAUCCACAUCUACGAAUUCUGUCCAUAGAGAGGUUAUCCGCUCAUCAAGAUCGGAAGAGCACACGU | 7.32 |
| target 2 MT 5'PFS AUA 3'PFS UGU (mixed) RNA 1: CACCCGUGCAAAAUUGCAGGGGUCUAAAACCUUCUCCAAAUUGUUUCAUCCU RNA 2: GGGAAUGGAUCCACAUCUACGAAUUCAUAAGGAUGAAACAAUUUGGAGAAGUGUAGAUCGGAAGAGCACACGU | 7.88 |
| target 3 C6A,U8A (mixed) RNA 1: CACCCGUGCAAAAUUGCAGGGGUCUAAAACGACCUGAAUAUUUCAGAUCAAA RNA 2: GGGAAUGGAUCCACAUCUACGAAUUCGUUUUUGAUCUGAAAUAAUAAGGUCUGCAGAUCGGAAGAGCACACGU | 7.23 |

Next up:
target 2 MT 5'PFS GAA 3'PFS AGG (mixed) RNA 1: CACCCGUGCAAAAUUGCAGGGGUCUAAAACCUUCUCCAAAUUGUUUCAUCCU RNA 2: GGGAAUGGAUCCACAUCUACGAAUUCGAAAGGAUGAAACAAUUUGGAGAAGAGGAGAUCGGAAGAGCACACGU has a reported pKd of 8.16
